Provenance of the data: patent US20150376196A1

biological target: BRD4 (BD1) (Homo sapiens); construct: amino acids 67-152, longer constructs also being possible, preferably amino acids 44-168; made in house; host or cells: E. coli; experiment: Binding assay BRD4/acetylated peptide H4 (TR-FRET protein-protein interaction assay)
readout-kind: pIC50
Please note pIC50 is a logarithmic value: minus log10 of concentration in mol/L. Answer with that number alone.

structure-smiles-string | pIC50
COC(=O)C[C@@H]1N=C(c2ccc(Cl)cc2)c2c(cnn2C)-n2c(C)nnc21 | 6.64
COC(=O)C[C@@H]1N=C(c2ccc(Cl)cc2)c2c(cn(C)c2C)-n2c(C)nnc21 | 8.00
COC(=O)C[C@@H]1N=C(c2ccccc2)c2c(cn(C)c2C)-n2c(C)nnc21 | 8.00
COC(=O)C[C@@H]1N=C(c2ccc(Cl)cc2)c2nn(C)cc2-n2c(C)nnc21 | 6.85

Turning to the following molecule.
[Q] Quick check: pIC50 of `Cc1c2c(cn1C)-n1c(C)nnc1[C@H](CC(=O)OC(C)(C)C)N=C2c1ccccc1` ?
[A] 6.51

====

biological target: BRD4 (BD1) (Homo sapiens, UniProt O60885); construct: amino acids 67-152, longer constructs also being possible, preferably amino acids 44-168; made in house; host or cells: E. coli; test: Binding assay BRD4/acetylated peptide H4 (TR-FRET protein-protein interaction assay); settings: BRD4 (BD1) / acetylated histone H4 peptide, TR-FRET; read-out: IC50 (BRD4)
pIC50: −log10 of the molar value.
Response key: criterion met means pIC50 >= 7; criterion not met means pIC50 < 7.

Solved entries:
compound | class-name
Cc1nnc2n1-c1cn(C)nc1C(c1ccc(Cl)cc1)=N[C@H]2CC(=O)N1CCS(=O)(=O)CC1 | criterion not met
Cc1c2c(cn1C)-n1c(C)nnc1[C@H](CC(=O)N1CC(Oc3ccccc3)C1)N=C2c1ccc(Cl)cc1 | criterion met
Cc1c2c(cn1C)-n1c(C)nnc1[C@H](CC(=O)N1CCOCC1)N=C2c1ccc(Cl)cc1 | criterion met
Cc1nnc2n1-c1cn(C)nc1C(c1ccc(Cl)cc1)=NC2CC(=O)N1CCS(=O)(=O)CC1 (stereo not drawn) | criterion not met
Cc1c2c(cn1C)-n1c(C)nnc1C(Cc1nc(C(C)C)no1)N=C2c1ccc(Cl)cc1 (stereo not drawn) | criterion met

[Q] Hi, just wondering whether Cc1nnc2n1-c1cn(C)nc1C(c1ccc(Cl)cc1)=NC2CC(=O)N1CC(F)C1 (stereo not drawn) shows pIC50 of 7 or higher.
[A] criterion not met

[Q] Hi, just wondering whether Cc1c2c(cn1C)-n1c(C)nnc1[C@H](CC(=O)N1CCN3C(=O)CCC3C1)N=C2c1ccc(Cl)cc1 (single isomer, unassigned; (-)) shows pIC50 of 7 or higher.
[A] criterion met

[Q] Hi, just wondering whether `Cc1c2c(cn1C)-n1c(C)nnc1[C@H](CC(=O)Nc1ccc3c(c1)CC(=O)N3)N=C2c1ccc(Cl)cc1` shows pIC50 of 7 or higher.
[A] criterion met

[Q] Hi, just wondering whether `CCc1noc(C[C@@H]2N=C(c3ccc(Cl)cc3)c3c(cn(C)c3C)-n3c(C)nnc32)n1` shows pIC50 of 7 or higher.
[A] criterion met

[Q] Hi, just wondering whether CCNC(=O)CC1N=C(c2ccc(Cl)cc2)c2nn(C)cc2-n2c(C)nnc21 (stereo not drawn) shows pIC50 of 7 or higher.
[A] criterion not met

[Q] Hi, just wondering whether `Cc1c2c(cn1C)-n1c(C)nnc1[C@H](CC(=O)OC(C)(C)C)N=C2c1ccc(Cl)cc1` shows pIC50 of 7 or higher.
[A] criterion met

[Q] Hi, just wondering whether CCc1noc(CC2N=C(c3ccc(Cl)cc3)c3c(cn(C)c3C)-n3c(C)nnc32)n1 (stereo not drawn) shows pIC50 of 7 or higher.
[A] criterion met

[Q] Hi, just wondering whether Cc1c2c(cn1C)-n1c(C)nnc1C(Cc1nc(C3CC3)no1)N=C2c1ccc(Cl)cc1 (stereo not drawn) shows pIC50 of 7 or higher.
[A] criterion met

[Q] Hi, just wondering whether `Cc1c2c(cn1C)-n1c(C)nnc1[C@H](CC(=O)N1CCOCC1)N=C2c1ccccc1` shows pIC50 of 7 or higher.
[A] criterion not met

====

molecular target: BRD4 (BD1) (Homo sapiens); construct: amino acids 67-152, longer constructs also being possible, preferably amino acids 44-168; made in house; host or cells: E. coli; assay: Binding assay BRD4/acetylated peptide H4 (TR-FRET protein-protein interaction assay); conditions: BRD4 (BD1) / acetylated histone H4 peptide, TR-FRET; read-out: IC50 (BRD4)
readout-kind: pIC50
Please note pIC50 is a logarithmic value: minus log10 of concentration in mol/L. Answer with that number alone.

Some solved entries appear below for comparison.
compound | experimental-result
Cc1c2c(cn1C)-n1c(C)nnc1[C@H](CC(=O)N1CC(F)C1)N=C2c1ccc(Cl)cc1 [Example 5] | 7.15
Cc1c2c(cn1C)-n1c(C)nnc1[C@H](CC(=O)N1CCN(C(=O)OC(C)(C)C)CC1)N=C2c1ccc(Cl)cc1 [Example 22] | 7.70
Cc1c2c(cn1C)-n1c(C)nnc1[C@H](CC(=O)N1CCC(=O)C1)N=C2c1ccc(Cl)cc1 [Example 12] | 6.96

Turning to the following compound.
[Q] Quick check: pIC50 of Cc1c2c(cn1C)-n1c(C)nnc1[C@H](CC(=O)N1CCS(=O)(=O)CC1)N=C2c1ccc(Cl)cc1 [Example 8] ?
[A] 7.00

====

# pIC50 listing for each entry below
tested on: B16F10 cells; experiment: Cell proliferation assay (alamarBlue), B16F10; type: cell-based; details: Mus musculus, B16-F10, Melanoma (BRAF wild-type), 96 hours, inhibition of cell proliferation
Please note pIC50 is a logarithmic value: minus log10 of concentration in mol/L. Answer with that number alone.

Some solved entries appear below for comparison.
structure-smiles-string | subject-of-test | pIC50
Cc1c2c(cn1C)-n1c(C)nnc1[C@H](CC(=O)N(C)CC1(C)COC1)N=C2c1ccc(Cl)cc1 | B16F10 cells | 5.85
Cc1c2c(cn1C)-n1c(C)nnc1[C@H](CC(=O)OC(C)(C)C)N=C2c1ccc(Cl)cc1 | B16F10 cells | 6.72
Cc1c2c(cn1C)-n1c(C)nnc1[C@H](CC(=O)N1CC(F)C1)N=C2c1ccc(Cl)cc1 | B16F10 cells | 6.24
Cc1c2c(cn1C)-n1c(C)nnc1[C@H](CC(=O)Nc1ccc3c(c1)CC(=O)N3)N=C2c1ccc(Cl)cc1 | B16F10 cells | 6.48
COC(=O)C[C@@H]1N=C(c2ccccc2)c2c(cn(C)c2C)-n2c(C)nnc21 | B16F10 cells | 7.10
Cc1c2c(cn1C)-n1c(C)nnc1[C@H](CC(=O)N1CCC(=O)C1)N=C2c1ccc(Cl)cc1 | B16F10 cells | 6.22
COC(=O)C[C@@H]1N=C(c2ccc(Cl)cc2)c2nn(C)cc2-n2c(C)nnc21 | B16F10 cells | 6.26
COC(=O)C[C@@H]1N=C(c2ccc(Cl)cc2)c2c(cn(C)c2C)-n2c(C)nnc21 | B16F10 cells | 7.10

[Q] Quick check: pIC50 of `Cc1c2c(cn1C)-n1c(C)nnc1[C@H](CC(=O)N1CCS(=O)(=O)CC1)N=C2c1ccc(Cl)cc1` ?
[A] 6.17

====

# pIC50 listing for each entry below
Test system: MOLM-13 cells
Experiment: Cell proliferation assay (alamarBlue), MOLM-13
Type: cell-based
Details: Homo sapiens, Leukaemia, 96 hours, inhibition of cell proliferation
Description: In accordance with the invention, the ability of the substances to inhibit cell proliferation was determined Cell viability was determined by means of the alamarBlue® reagent (Invitrogen) in a Victor X3 Multilabel Reader (Perkin Elmer). […] The MDA-MB-231 cells (DSMZ, ACC 732) were sown at a concentration of 4000 cells/well in 100 μl of growth medium (DMEM/Ham's F12 medium, 10% FCS) on 96-well microtitre plates. After overnight incubation at 37° C., the fluorescence values (CI values) were determined. […]
Please note pIC50 is a logarithmic value: minus log10 of concentration in mol/L. Answer with that number alone.

Some solved entries appear below for comparison.
compound | pIC50
Cc1nnc2n1-c1cn(C)nc1C(c1ccc(Cl)cc1)=NC2CC(=O)N1CCS(=O)(=O)CC1 (stereo not shown) | 5.46
Cc1nnc2n1-c1cn(C)nc1C(c1ccc(Cl)cc1)=N[C@H]2CC(=O)N1CCS(=O)(=O)CC1 | 5.53
Cc1c2c(cn1C)-n1c(C)nnc1C(Cc1nc(C(C)C)no1)N=C2c1ccc(Cl)cc1 (stereo not shown) | 7.10

Turning to the following compound.
[Q] Quick check: pIC50 of `Cc1c2c(cn1C)-n1c(C)nnc1[C@H](CC(=O)N1CC(F)C1)N=C2c1ccc(Cl)cc1` ?
[A] 6.28

====

tested on: MOLP-8 cells; assay: Cell proliferation assay (alamarBlue), MOLP-8; format: cell-based; settings: Homo sapiens, Multiple myeloma, 120 hours, inhibition of cell proliferation
readout-kind: IC50 (nM)
Numbers only here, please. The scale is nM.

Some solved entries appear below for comparison.
molecule | units | experimental-result
COC(=O)C[C@@H]1N=C(c2ccc(Cl)cc2)c2c(cnn2C)-n2c(C)nnc21 [Example 7] | nM | 450
Cc1c2c(cn1C)-n1c(C)nnc1[C@H](CC(=O)Nc1ccc3c(c1)CC(=O)N3)N=C2c1ccc(Cl)cc1 [Example 13] | nM | 220

[Q] Quick check: IC50 of Cc1nnc2n1-c1cn(C)nc1C(c1ccc(Cl)cc1)=NC2CC(=O)N1CCS(=O)(=O)CC1 (stereo not shown) [Example 14] ?
[A] 4000

[Q] Quick check: IC50 of COC(=O)C[C@@H]1N=C(c2ccc(Cl)cc2)c2c(cn(C)c2C)-n2c(C)nnc21 [Example 1] ?
[A] 50
